Answer each item with its documented IC50.
Target: FGFR-1 (Homo sapiens, UniProt P11362)
Construct: GST; made in house
Sequence (P11362 22-822): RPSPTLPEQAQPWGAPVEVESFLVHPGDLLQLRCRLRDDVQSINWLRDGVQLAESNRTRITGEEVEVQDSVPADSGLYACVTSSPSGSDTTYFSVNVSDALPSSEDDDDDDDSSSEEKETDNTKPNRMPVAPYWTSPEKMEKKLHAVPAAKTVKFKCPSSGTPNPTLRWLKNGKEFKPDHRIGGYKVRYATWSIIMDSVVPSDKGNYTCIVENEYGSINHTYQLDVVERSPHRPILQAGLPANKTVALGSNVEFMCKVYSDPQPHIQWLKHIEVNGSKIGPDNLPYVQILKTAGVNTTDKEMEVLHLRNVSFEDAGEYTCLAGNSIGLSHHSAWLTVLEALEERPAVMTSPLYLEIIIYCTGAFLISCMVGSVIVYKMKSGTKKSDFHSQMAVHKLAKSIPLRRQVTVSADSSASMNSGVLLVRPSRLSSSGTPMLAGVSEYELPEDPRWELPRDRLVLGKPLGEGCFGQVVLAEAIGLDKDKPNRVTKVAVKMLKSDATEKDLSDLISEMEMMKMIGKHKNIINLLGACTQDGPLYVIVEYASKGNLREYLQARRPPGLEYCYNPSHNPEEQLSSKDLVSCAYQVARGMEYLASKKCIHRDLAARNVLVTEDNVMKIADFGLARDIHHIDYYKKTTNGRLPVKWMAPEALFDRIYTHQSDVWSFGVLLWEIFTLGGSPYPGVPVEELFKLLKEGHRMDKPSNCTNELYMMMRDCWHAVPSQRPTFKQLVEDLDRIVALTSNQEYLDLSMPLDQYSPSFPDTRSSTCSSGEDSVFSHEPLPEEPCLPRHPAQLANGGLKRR
Experiment: FGFR-1 TR-FRET biochemical assay
Details: 0.6 uM ATP, 5 nM FGFR1-GST; bounds given in nM

Data request: Record request: IC50 value, item "Nc1ncnn2c(C3CCN(C(=O)CN4CCOCC4)CC3)cc(-c3ccc(NC(=O)Nc4cc(C(F)(F)F)ccc4F)c(Cl)c3)c12"
Data returned: 10 to 100 nM

Data request: Ok, now "Cc1ccnc(NC(=O)Nc2ccc(-c3cc(CN4CCOCC4)n4ncnc(N)c34)cc2Cl)c1"
Data returned: 10 to 100 nM

Data request: Next: CS(=O)(=O)N1CCC(c2cc(-c3ccc(NC(=O)Nc4cc(C(F)(F)F)ccc4F)c(F)c3)c3c(N)ncnn23)C1 (centres unmarked)
Data returned: < 10 nM

Data request: Quick one: "CC(=O)c1cc(-c2ccc(NC(=O)Nc3cc(C(F)(F)F)ccc3F)cc2)c2c(N)ncnn12"
Data returned: 10 to 100 nM

Data request: Again, but for "Nc1ncnn2c(CN3CCCOCC3)cc(-c3ccc(NC(=O)Nc4cc(C(F)(F)F)ccn4)c(F)c3)c12"
Data returned: < 10 nM

Data request: Next up: "Nc1ncnn2c(-c3cnco3)cc(-c3ccc(NC(=O)Nc4cc(C(F)(F)F)ccn4)c(F)c3)c12"
Data returned: 10 to 100 nM

Data request: Another: "CN(C)CC(=O)N1CCC(c2cc(-c3ccc(NC(=O)Nc4cc(C(F)(F)F)ccc4F)c(Cl)c3)c3c(N)ncnn23)CC1"
Data returned: < 10 nM

Data request: Next record, please: "COc1cc(-c2cc(CN3CCOCC3)n3ncnc(N)c23)ccc1NC(=O)Nc1cc(C(F)(F)F)ccc1Cl"
Data returned: 10 to 100 nM

Data request: Try this compound next: "COc1cc(-c2cc(CN3CCOCC3)n3ncnc(N)c23)ccc1NC(=O)Nc1cc(C(F)(F)F)ccc1F"
Data returned: 10 to 100 nM

Data request: Note, next up: "Nc1ncnn2c(CN3CCOCC3)cc(-c3ccc(NC(=O)Nc4cc(F)cc(C(F)(F)F)c4)nc3)c12"
Data returned: < 10 nM

Data request: Field entry: "Nc1ncnn2c(CCCN3CCNC(=O)C3)cc(-c3ccc(NC(=O)Nc4cc(C(F)(F)F)ccc4F)c(F)c3)c12"
Data returned: < 10 nM

Data request: And the next one, "CC(C)(C)NC(=O)N1CCC(c2cc(-c3ccc(NC(=O)Nc4cc(C(F)(F)F)ccn4)c(F)c3)c3c(N)ncnn23)CC1" ?
Data returned: 10 to 100 nM

Data request: Also "Nc1ncnn2c(CN3CCOCC3)cc(-c3cc(F)c(NC(=O)Nc4cc(C(F)(F)F)ccn4)c(F)c3)c12" , if possible.
Data returned: > 100 nM

Data request: Consider next the compound "Nc1ncnn2c(CN3CCOCC3)cc(-c3ccc(NC(=O)Nc4cccc(Br)c4)c(F)c3)c12" in the same way.
Data returned: < 10 nM

====

Biological target: FGFR-1 (Homo sapiens)
Construct: GST; made in house
Experiment: FGFR-1 TR-FRET biochemical assay
Details: 0.6 uM ATP, 5 nM FGFR1-GST; bounds given in nM
observable: IC50

Data request: I have this molecule here, "Cc1cc(-c2cc(CN3CCOCC3)n3ncnc(N)c23)ccc1NC(=O)Nc1cc(F)cc(C(F)(F)F)c1" , and I need its recorded IC50.
Data returned: < 10 nM

Data request: Would you mind doing Nc1ncnn2c(C(O)CO)cc(-c3ccc(NC(=O)Nc4cc(C(F)(F)F)ccc4F)c(F)c3)c12 (stereo not shown) as well?
Data returned: > 100 nM

Data request: Follow-up entry: "Nc1ncnn2c(CN3CCOCC3)cc(-c3cc(F)c(NC(=O)Nc4cccc(C(F)(F)F)c4F)cc3F)c12"
Data returned: 10 to 100 nM

Data request: Please give the result for "Nc1ncnn2c(CCCN3CCOCC3)cc(-c3ccc(NC(=O)Nc4cc(C(F)(F)F)ccc4F)cc3)c12" too.
Data returned: < 10 nM

====

Target: FGFR-1 (Homo sapiens, UniProt P11362)
Construct: GST; made in house
Assay: FGFR-1 TR-FRET biochemical assay
Details: 0.6 uM ATP, 5 nM FGFR1-GST; bounds given in nM
Protocol: FGFR-1TR-FRET Biochemical Assay The FGFR-1 Assay was performed on half well 96-well opaque plates (Costar 3915) in a LANCE format. LANCE is a homogenous time resolved fluormetry based application available through Perkin Elmer. […] Time-resolved fluorescence was then read on a Perkin Elmer VictorV Multilabel counter. The reading protocol uses an excitation wavelength at 340 nm and emission reads at both 615 and 665 nm. […]
Please respond with reported IC50 for every item in the list.

Data request: Item "COC[C@H]1CCCN1C(=O)c1cc(-c2ccc(NC(=O)Nc3cc(C(F)(F)F)ccc3F)c(F)c2)c2c(N)ncnn12" has what recorded IC50?
Data returned: 10 to 100 nM

Data request: And the next one, "Nc1ncnn2c(CN3CCCOCC3)cc(-c3ccc(NC(=O)Nc4cc(C(F)(F)F)ccc4F)cc3)c12" ?
Data returned: < 10 nM

Data request: Try the molecule Nc1ncnn2c(C(=O)C3CNCCO3)cc(-c3ccc(NC(=O)Nc4cc(C(F)(F)F)ccc4F)c(F)c3)c12 (centres unmarked)
Data returned: 10 to 100 nM

Data request: Also need "Nc1ncnn2c(CN3CCCOCC3)cc(-c3ccc(NC(=O)Nc4cc(C(F)(F)F)ccc4F)c(F)c3)c12" , thanks.
Data returned: < 10 nM

Data request: Item: "Cc1ccc(F)c(NC(=O)Nc2ccc(-c3cc(CN4CCOCC4)n4ncnc(N)c34)cc2F)c1"
Data returned: < 10 nM

Data request: "Nc1ncnn2c(CCN3CCOCC3)cc(-c3ccc(NC(=O)Nc4cc(C(F)(F)F)ccn4)c(F)c3)c12" ?
Data returned: 10 to 100 nM

Data request: Next molecule: "COc1ccc(C(C)(C)C)cc1NC(=O)Nc1ccc(-c2cc(CN3CCOCC3)n3ncnc(N)c23)cc1"
Data returned: 10 to 100 nM

Data request: Could you do the same for "CC(=O)N1CCN(Cc2cc(-c3ccc(NC(=O)Nc4cc(C(F)(F)F)ccc4F)c(F)c3)c3c(N)ncnn23)CC1" , please?
Data returned: < 10 nM

Data request: What about this molecule? "Nc1ncnn2c(CCCN3CCS(=O)(=O)CC3)cc(-c3ccc(NC(=O)Nc4cc(C(F)(F)F)ccc4F)c(F)c3)c12"
Data returned: < 10 nM

Data request: Now this one: "COc1cc(NC(=O)Nc2cc(C(F)(F)F)ccn2)ccc1-c1cc(CN2CCOCC2)n2ncnc(N)c12"
Data returned: 10 to 100 nM

Data request: Next molecule: "COC[C@@H]1CCCN1CCc1cc(-c2ccc(NC(=O)Nc3cc(C(F)(F)F)ccc3F)c(F)c2)c2c(N)ncnn12"
Data returned: 10 to 100 nM

Data request: Now try "Nc1ncnn2c(CCCCN3CCOCC3)cc(-c3ccc(NC(=O)Nc4cc(C(F)(F)F)ccc4F)c(F)c3)c12" .
Data returned: < 10 nM

Data request: Could you do the same for "CN1CCC(c2cc(-c3ccc(NC(=O)Nc4cc(C(F)(F)F)ccc4F)c(F)c3)c3c(N)ncnn23)CC1" , please?
Data returned: < 10 nM

Data request: Similarly, "Nc1ncnn2c(CCN3CCOCC3)cc(-c3ccc(NC(=O)Nc4cc(C(F)(F)F)ccc4F)c(F)c3)c12" ?
Data returned: 10 to 100 nM

Data request: Ok, now "CC(C)(C)OC(=O)N1CCN(Cc2cc(-c3ccc(NC(=O)Nc4cc(C(F)(F)F)ccc4F)cc3)c3c(N)ncnn23)CC1"
Data returned: > 100 nM

Data request: Same question for "Nc1ncnn2c(CN3CCOCC3)cc(-c3ccc(NC(=O)Nc4cc(C(F)(F)F)ccc4F)cc3)c12" please.
Data returned: < 10 nM

Data request: Cool, now Nc1ncnn2c(CC3CNCCO3)cc(-c3ccc(NC(=O)Nc4cccc(C(F)(F)F)c4)c(F)c3)c12 (centres unmarked)
Data returned: 10 to 100 nM

Data request: Quick one: "Nc1ncnn2c(CN3CCOCC3)cc(-c3ccc(NC(=O)Nc4cccc(Cl)c4)c(F)c3)c12"
Data returned: 10 to 100 nM

Data request: Moving on to "CC(C)(C)c1ccccc1NC(=O)Nc1ccc(-c2cc(CN3CCOCC3)n3ncnc(N)c23)cc1"
Data returned: > 100 nM

Data request: One more molecule: "Nc1ncnn2c(CN3CCNC(=O)C3)cc(-c3ccc(NC(=O)Nc4cc(C(F)(F)F)ccn4)cc3)c12"
Data returned: < 10 nM

Data request: Moving on to the next molecule: "Nc1ncnn2c(CN3CCCOCC3)cc(-c3ccc(NC(=O)Nc4cc(C(F)(F)F)ccn4)cc3)c12"
Data returned: < 10 nM

Data request: One more molecule: "CC(C)(C)c1ccnc(NC(=O)Nc2ccc(-c3cc(CN4CCOCC4)n4ncnc(N)c34)cc2)c1"
Data returned: < 10 nM

Data request: Repeat for the following molecule: "Nc1ncnn2c(C3CCN(C4CC4)CC3)cc(-c3ccc(NC(=O)Nc4cc(C(F)(F)F)ccn4)c(F)c3)c12"
Data returned: 10 to 100 nM

Data request: What do you have for "Nc1ncnn2c(CN3CCS(=O)(=O)CC3)cc(-c3ccc(NC(=O)Nc4cc(C(F)(F)F)ccn4)c(F)c3)c12" ?
Data returned: < 10 nM

Data request: Also "Cc1cccc(NC(=O)Nc2ccc(-c3cc(CN4CCOCC4)n4ncnc(N)c34)cc2)n1" , if possible.
Data returned: > 100 nM

Data request: Next molecule up: "CC(=O)c1cc(-c2ccc(NC(=O)Nc3cc(C(F)(F)F)ccc3F)c(F)c2)c2c(N)ncnn12"
Data returned: < 10 nM

Data request: Consider next the molecule "Nc1ncnn2c(CN3CCOCC3)cc(-c3ccc(NC(=O)Nc4cc(C(F)(F)F)ccn4)c(Cl)c3)c12" in the same way.
Data returned: < 10 nM

Data request: Next record, please: "CC(=O)N1CCC(c2cc(-c3ccc(NC(=O)Nc4cc(C(F)(F)F)ccc4F)c(Cl)c3)c3c(N)ncnn23)CC1"
Data returned: < 10 nM

Data request: Next molecule up: "Nc1ncnn2c(C3CCN(C(=O)C4CC4)CC3)cc(-c3ccc(NC(=O)Nc4cc(C(F)(F)F)ccc4F)c(Cl)c3)c12"
Data returned: 10 to 100 nM
